- assay-details: Tissue distribution in SD rats after oral dose
- Parameters: species or system SD rat
- condition-set: male, SD, rat, in vivo, po, 5 mg/kg, Tmax
assay-endpoint: Tmax (h)
Answers are plain numbers, in h.

Indicate its recorded Tmax; the compound in question is C[C@H](Nc1ncnc(N)c1C#N)c1cc2ncc(Cl)n2nc1-c1ccccc1 1

* * *

- assay-details: Single-dose PK in ICR mice (IV/PO)
- condition-set: male, ICR, mouse, in vivo, po, 10 mg/kg
assay-endpoint: Cmax (ng/mL)
Numbers only, in ng/mL.

Tell me its Cmax given C[C@H](Nc1ncnc(N)c1C#N)c1cc2ncc(Cl)n2nc1-c1ccccc1 as the entry. 3080

* * *

- system-name: OAT3 (Homo sapiens, UniProt Q8TCC7)
- Sequence (Q8TCC7 whole entry): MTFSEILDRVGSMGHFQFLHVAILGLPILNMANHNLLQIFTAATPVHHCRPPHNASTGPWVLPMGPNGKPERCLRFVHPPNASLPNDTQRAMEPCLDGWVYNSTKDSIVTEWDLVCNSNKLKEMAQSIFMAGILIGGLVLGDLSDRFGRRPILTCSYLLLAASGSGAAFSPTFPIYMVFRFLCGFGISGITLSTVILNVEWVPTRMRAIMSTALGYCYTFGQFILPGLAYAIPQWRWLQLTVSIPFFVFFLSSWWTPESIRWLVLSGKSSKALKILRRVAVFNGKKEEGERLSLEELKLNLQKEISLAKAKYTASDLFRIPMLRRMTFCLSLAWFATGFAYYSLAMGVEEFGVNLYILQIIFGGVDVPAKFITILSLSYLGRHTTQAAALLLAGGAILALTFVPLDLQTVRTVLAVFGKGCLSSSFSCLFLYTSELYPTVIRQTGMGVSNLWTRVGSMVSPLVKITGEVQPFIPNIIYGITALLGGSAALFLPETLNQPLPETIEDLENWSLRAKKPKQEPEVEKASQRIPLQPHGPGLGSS
- assay-details: in vitro
- condition-set: human, pH 7.4
assay-endpoint: inhibition at 2 min, 100 µM (%)
Numbers only, in %.

> print(dat)
                                   compound               assay.endpoint  observed.measurement
1  CCCN(CCC)S(=O)(=O)c1ccc(C(=O)O)cc1 [Probenecid, reference compound]  inhibition at 2 min, 100 µM                   100

The record that follows has no inhibition at 2 min, 100 µM shown yet.
Please report the measured inhibition at 2 min, 100 µM for C[C@H](Nc1ncnc(N)c1C#N)c1cc2ncc(Cl)n2nc1-c1ccccc1 [Amdizalisib] 72.7

* * *

- system-name: OCT2 (Homo sapiens)
- Sequence (O15244 1-555): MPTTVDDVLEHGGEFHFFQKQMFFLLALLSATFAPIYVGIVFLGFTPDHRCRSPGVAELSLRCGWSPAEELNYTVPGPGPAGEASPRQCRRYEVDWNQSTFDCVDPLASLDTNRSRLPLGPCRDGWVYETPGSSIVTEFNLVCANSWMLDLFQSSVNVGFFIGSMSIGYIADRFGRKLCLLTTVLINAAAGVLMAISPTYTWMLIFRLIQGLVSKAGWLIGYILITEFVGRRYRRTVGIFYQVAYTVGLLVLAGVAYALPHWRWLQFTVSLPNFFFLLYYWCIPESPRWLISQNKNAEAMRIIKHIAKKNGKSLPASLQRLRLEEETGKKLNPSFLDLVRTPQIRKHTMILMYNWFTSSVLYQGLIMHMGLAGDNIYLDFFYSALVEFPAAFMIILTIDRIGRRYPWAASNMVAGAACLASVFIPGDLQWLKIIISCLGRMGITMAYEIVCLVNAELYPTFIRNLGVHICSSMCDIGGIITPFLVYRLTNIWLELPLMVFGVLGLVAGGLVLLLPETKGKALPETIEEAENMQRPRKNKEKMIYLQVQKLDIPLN
- assay-details: in vitro
- condition-set: human, pH 7.4
assay-endpoint: inhibition at 2 min, 3 µM (%)
One number for each entry, in %.

Return the recorded inhibition at 2 min, 3 µM value; entry: C[C@H](Nc1ncnc(N)c1C#N)c1cc2ncc(Cl)n2nc1-c1ccccc1 [Amdizalisib] 4.92

* * *

- assay-details: Caco-2 bidirectional transport permeability
- Format: in vitro ADME, human
- condition-set: human, substrate 80 µM, 60 min
assay-endpoint: Papp A→B at 60 min, 80 µM (×10⁻⁶ cm/s)
Answers are plain numbers, in ×10⁻⁶ cm/s.

Respond only with Papp A→B at 60 min, 80 µM recorded for C[C@H](Nc1ncnc(N)c1C#N)c1cc2ncc(Cl)n2nc1-c1ccccc1 47.7
